This collection of values is drawn from the OligoGym collection.

Answer each item with its documented remaining target (mRNA or protein) (fraction of control).
# Test Target: GNAI2; also: test concentration or dose not given here
# Condition Summary: ASO
These antisense oligonucleotides have a phosphorothioate backbone; sugars and methylation of C are not fully specified.
One number for each entry.

CTTCCCTGACTCCCCAGC ... 0.3
AGCTGCCTGGCGTCGTCC ... 0.34
CGGACAGGTCATCAGGGA ... 0.59
AGCCCATCCCGCCGTCCG ... 0.91

// next item, remaining target (mRNA or protein) (fraction of control) requested
Query block: Quick one: remaining target (mRNA or protein) (fraction of control) for `CCTCAAACTTACTCTGGA` ?
Result block: 0.85
